- tested-system: furin, P09958;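 also: purified furin at 1:10 enzyme:substrate in 50 mM HEPES pH 7.5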
- Sequence (P09958 whole entry): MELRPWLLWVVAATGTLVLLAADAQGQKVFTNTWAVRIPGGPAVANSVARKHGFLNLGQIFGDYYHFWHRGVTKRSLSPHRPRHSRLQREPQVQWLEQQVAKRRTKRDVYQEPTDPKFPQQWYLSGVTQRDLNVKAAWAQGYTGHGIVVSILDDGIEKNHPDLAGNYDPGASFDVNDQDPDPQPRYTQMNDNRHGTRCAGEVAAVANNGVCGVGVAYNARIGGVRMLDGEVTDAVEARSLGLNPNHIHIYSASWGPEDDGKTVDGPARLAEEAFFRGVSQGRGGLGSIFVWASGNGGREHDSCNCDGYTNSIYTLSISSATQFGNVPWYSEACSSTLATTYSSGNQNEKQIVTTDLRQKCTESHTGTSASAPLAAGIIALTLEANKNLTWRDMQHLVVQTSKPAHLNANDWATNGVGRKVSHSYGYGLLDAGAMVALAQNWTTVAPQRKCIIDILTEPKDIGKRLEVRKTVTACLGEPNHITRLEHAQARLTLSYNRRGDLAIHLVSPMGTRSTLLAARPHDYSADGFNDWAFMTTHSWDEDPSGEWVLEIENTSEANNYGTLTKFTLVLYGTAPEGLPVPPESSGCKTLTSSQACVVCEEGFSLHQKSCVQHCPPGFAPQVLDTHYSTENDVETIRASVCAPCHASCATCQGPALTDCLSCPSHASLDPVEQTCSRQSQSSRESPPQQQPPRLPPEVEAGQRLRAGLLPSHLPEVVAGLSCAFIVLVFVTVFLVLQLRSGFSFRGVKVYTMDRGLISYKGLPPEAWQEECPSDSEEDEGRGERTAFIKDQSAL
- method: furin cleavage Z-score vs untreated control; higher = more cleavage, active = 3.5 or more, inactive = 1 or less, 8 variable residues between constant flanks
- particulars: 15 min
The other results are listed elsewhere or left out. The hit rate among all sequences tested is not known here.
outcome-measure: furin cleavage Z-score

                 residue_codes  observed_result
0  CASAPPGDPPAGNASASA [HC1544]            -0.28
1   CADVVVVATDAGNASASA [HC876]           -0.376
2   CAFNSSGCPEAGNASASA [HC384]            -1.69
3  CATWPCSGSWAGNASASA [HC1848]            -1.25
